For each of the compounds below, state its FORCE INDUCING PAW-WITHDRAWAL, mean ± s.e.m..
Test system: neuropathic pain (CHUNG), tactile stimulation
Test: Neuropathic pain (CHUNG) test, tactile stimulation on lesioned paw
Type: in vivo, rat
Details: 16 mg/kg i.p. -30 min; lesioned paw

// solved cases for FORCE INDUCING PAW-WITHDRAWAL, mean ± s.e.m. follow
>  <Compound>
NC(=O)N1c2ccccc2C=Cc2ccccc21 [Carbamazepine, carbamazepine]

>  <Target Or Test System>
neuropathic pain (CHUNG), tactile stimulation

>  <Reported Value>
21.0 ± 2.3 NS (b) g

$$$$
>  <Compound>
CN1CC[C@]23c4c5ccc(O)c4O[C@H]2[C@@H](O)C=C[C@H]3[C@H]1C5

>  <Target Or Test System>
neuropathic pain (CHUNG), tactile stimulation

>  <Reported Value>
45.9 ± 8.8 (b) g

$$$$

Fill in FORCE INDUCING PAW-WITHDRAWAL, mean ± s.e.m. for each of the 2 compounds listed.
1. CC[C@@H](C(N)=O)N1CCCC1=O
2. COC[C@@H](NC(C)=O)C(=O)NCc1ccccc1

Result block:
1. 23.0 ± 4.0 NS (b) g
2. 24.4 ± 3.0 NS (b) g

Ref: patent US20100099770A1
